Molecular target: UniProt:P30518
Sequence (P30518 whole entry, looked up): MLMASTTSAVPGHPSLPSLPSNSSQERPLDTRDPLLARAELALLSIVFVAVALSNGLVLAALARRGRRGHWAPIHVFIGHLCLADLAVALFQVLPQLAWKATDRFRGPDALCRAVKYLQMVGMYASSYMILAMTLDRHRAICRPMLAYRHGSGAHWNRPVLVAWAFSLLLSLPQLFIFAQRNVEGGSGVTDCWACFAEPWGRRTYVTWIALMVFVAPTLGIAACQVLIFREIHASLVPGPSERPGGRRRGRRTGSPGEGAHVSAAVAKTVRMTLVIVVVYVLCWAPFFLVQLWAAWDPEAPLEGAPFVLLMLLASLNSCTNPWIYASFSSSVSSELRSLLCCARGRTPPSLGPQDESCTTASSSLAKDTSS
Assay: blockade of AVPR2 arrestin recruitment – imaging, beta-arrestin-GFP, U2OS, antagonist mode, selectivity assay for GPR35 antagonist project, SAR follow-up (AID 463202)
Conditions: U2OS AVPR2 beta-arrestin-GFP translocation imaging; at 10 µM; active compounds read high
Everything with inhibition lower than 10% is False; everything else, including exactly 10%, is True.

Example entries begin here.
{"columns": ["STRUCTURE STRING", "ASSAYED SYSTEM", "CATEGORY LABEL"],
 "data": [
  ["O=C(CCCN1C(=O)S/C(=C\\C=C\\c2ccccc2)C1=O)Nc1ccc(C(=O)O)cc1", "UniProt:P30518", "True"],
  ["CCc1ccc(/C=C2\\SC(=S)N(CCCC(=O)Nc3ccc(C(=O)O)cc3)C2=O)cc1", "UniProt:P30518", "False"]
]}

Next compound, please.
Data request: Exam item: decide whether the reported inhibition for "Cc1ccccc1N1CCN(c2ncnc3c2cnn3Cc2ccc(Cl)cc2)CC1" is at least 10%.
Data returned: False
